// data source = patent US9888688B2

System: cotton aphid (Aphis gossypii)
RUN_DESCRIPTION: Cotton aphid control test on cucumber (Test Example 32)
Assay type: in vivo
CONDITIONS_USED: 144 h, 20 mL sprayed on cucumber, after 6 days
Below, each entry is listed alongside its reported pest or weed control at 500 ppm.

{"MOLECULE": "Cc1cc(-c2ccc(F)cn2)c(C)cc1OCc1c(C2CC2)cccc1-n1nnn(C)c1=O [Present Compound 219]", "pest or weed control at 500 ppm": "≥ 90%"}
{"MOLECULE": "COc1cc(-c2cccc(C)n2)ccc1OCc1c(C)cccc1-n1nnn(C)c1=O [Present Compound 155]", "pest or weed control at 500 ppm": "≥ 90%"}
{"MOLECULE": "Cc1cccc(-c2ccc(OCc3c(C)cccc3-n3nnn(C)c3=O)c(C(F)(F)F)c2)n1 [Present Compound 59]", "pest or weed control at 500 ppm": "≥ 90%"}
{"MOLECULE": "CCc1cccc(-c2ccc(OCc3c(C)cccc3-n3nnn(C)c3=O)c(C(F)(F)F)c2)n1 [Present Compound 131]", "pest or weed control at 500 ppm": "≥ 90%"}
{"MOLECULE": "CCc1cccc(-n2nnn(C)c2=O)c1COc1ccc(-c2nccc(C)n2)cc1C(F)(F)F [Present Compound 138]", "pest or weed control at 500 ppm": "≥ 90%"}

---

Test system: cotton aphid (Aphis gossypii)
RUN_DESCRIPTION: Cotton aphid control test on cucumber (Test Example 32)
Type: in vivo
CONDITIONS_USED: 144 h, 20 mL sprayed on cucumber, after 6 days
Attribute: pest or weed control at 500 ppm

{"COMPOUND_STRUCTURE": "C=C(C)c1cccc(-c2ccc(OCc3c(C)cccc3-n3nnn(C)c3=O)c(C)c2)n1", "pest or weed control at 500 ppm": "≥ 90%"}
{"COMPOUND_STRUCTURE": "CCOc1cccc(-n2nnn(C)c2=O)c1COc1ccc(-c2ccc(Cl)cn2)cc1C", "pest or weed control at 500 ppm": "≥ 90%"}
{"COMPOUND_STRUCTURE": "Cc1cc(-c2ccc(F)cn2)c(F)cc1OCc1c(C)cccc1-n1nnn(C)c1=O", "pest or weed control at 500 ppm": "≥ 90%"}
{"COMPOUND_STRUCTURE": "Cc1cccc(-n2nnn(C)c2=O)c1COc1cc(Cl)c(-c2ccccn2)cc1Cl", "pest or weed control at 500 ppm": "≥ 90%"}
{"COMPOUND_STRUCTURE": "Cc1ccnc(-c2ccc(OCc3ccccc3-n3nnn(C)c3=O)c(C(F)(F)F)c2)n1", "pest or weed control at 500 ppm": "≥ 90%"}
{"COMPOUND_STRUCTURE": "Cc1ccnc(-c2ccc(OCc3c(C)cccc3-n3nnn(C)c3=O)c(C)c2)c1", "pest or weed control at 500 ppm": "≥ 90%"}
{"COMPOUND_STRUCTURE": "COc1ccncc1-c1cc(C)c(OCc2c(C)cccc2-n2nnn(C)c2=O)cc1C", "pest or weed control at 500 ppm": "≥ 90%"}
{"COMPOUND_STRUCTURE": "Cc1cc(-c2cccc(C#N)n2)ccc1OCc1c(C2CC2)cccc1-n1nnn(C)c1=O", "pest or weed control at 500 ppm": "≥ 90%"}
{"COMPOUND_STRUCTURE": "Cc1cc(-c2ncc(F)cn2)c(C)cc1OCc1c(C)cccc1-n1nnn(C)c1=O", "pest or weed control at 500 ppm": "≥ 90%"}
{"COMPOUND_STRUCTURE": "Cc1cc(-c2cccc(C(C)C)n2)ccc1OCc1c(C)cccc1-n1nnn(C)c1=O", "pest or weed control at 500 ppm": "≥ 90%"}
{"COMPOUND_STRUCTURE": "CCc1cccc(-c2ccc(OCc3c(OC)cccc3-n3nnn(C)c3=O)c(C)c2)n1", "pest or weed control at 500 ppm": "≥ 90%"}
{"COMPOUND_STRUCTURE": "Cc1ccc(-c2ccc(OCc3c(C)cccc3-n3nnn(C)c3=O)c(C)c2)nn1", "pest or weed control at 500 ppm": "≥ 90%"}
{"COMPOUND_STRUCTURE": "Cc1cccc(-c2ccc(OCc3ccccc3-n3nnn(C)c3=O)c(C(F)(F)F)c2)n1", "pest or weed control at 500 ppm": "≥ 90%"}
{"COMPOUND_STRUCTURE": "Cc1cc(-c2ncc(F)cn2)ccc1OCc1c(C)cccc1-n1nnn(C)c1=O", "pest or weed control at 500 ppm": "≥ 90%"}
{"COMPOUND_STRUCTURE": "CCOc1cccc(-n2nnn(C)c2=O)c1COc1ccc(-c2cccc(Cl)n2)cc1C", "pest or weed control at 500 ppm": "≥ 90%"}
